method-summary: chemical genetic growth profiling, strain panel (AID 1159580);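 also: tested at 20 µM; growth read once vehicle control cultures reached saturation at 30 °C; 1 = growth at the plate median or of vehicle wells; lower values mean less growth of the strain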
condition-notes: S. cerevisiae deletion strains, growth OD, locus YMR129W, stronger effect = lower value
In all, about 5,500 compounds went through this assay and about 2,000 (36%) were called active. Roughly 18% stayed inconclusive and do not appear here. Some of the results follow.
For each record, write down the corresponding normalized growth.
Give only the figure.

Please look up its normalized growth: COP(=S)(OC)SCn1nnc2ccccc2c1=O 1.01

Please look up its normalized growth: CC(=O)N[C@@H](CC(=O)O)C(=O)O 1

Please look up its normalized growth: Cc1ncc([N+](=O)[O-])n1CCO 0.98

Please look up its normalized growth: Cn1nnnc1SCC1=C(C(=O)O)N2C(=O)C(NC(=O)C(OC=O)c3ccccc3)C2SC1 (stereo unspecified) 1

Please look up its normalized growth: O=C(O)CCCN1C(=O)c2cccc3cccc(c23)C1=O 1.02

Please look up its normalized growth: CC(C(=O)O)c1ccc(N2Cc3ccccc3C2=O)cc1 (stereo unspecified) 0.986

###

method-summary: chemical genetic growth profiling, strain panel (AID 1159580)
condition-notes: S. cerevisiae deletion strains, growth OD, locus YNL298W, strain CLA4, stronger effect = lower value
The campaign covered roughly 5,500 compounds. About 2,000 (36%) were called active. Roughly 18% stayed inconclusive and do not appear here. The list shows a part of the results.
Lab note - cut at 1 for normalized growth: true (1) if strictly below, false (0) if not.

Decide: normalized growth of COP(=S)(OC)SCn1nnc2ccccc2c1=O strictly below 1? true (1)

Decide: normalized growth of CC1=C2[C@](C)(C=CC1=O)C[C@H](O)[C@H]1[C@H](C)C(=O)O[C@]21C strictly below 1? false (0)

###

For each record, write down the corresponding normalized growth.
method-summary: chemical genetic growth profiling, strain panel (AID 1159580);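 also: tested at 20 µM; growth read once vehicle control cultures reached saturation at 30 °C; 1 = growth at the plate median or of vehicle wells; lower values mean less growth of the strain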
condition-notes: S. cerevisiae deletion strains, growth OD, locus YJL166W, strain qcr8, stronger effect = lower value
Screen size: about 5,500 compounds; about 2,000 (36%) were called active. About 18% were inconclusive and are not listed. The list shows a part of the results.
Give only the figure.

Please look up its normalized growth: C[N+]1(C)C2CC[C@H]1CC(OC(=O)C(O)c1ccccc1)C2 (stereo not given in full) 0.999

Please look up its normalized growth: CCS(=O)(=O)CCn1c([N+](=O)[O-])cnc1C 0.996

Please look up its normalized growth: COc1cc(OC)c2c(c1Cl)OC1(C2=O)C(O)=CC(=O)CC1C (stereo not given) 1.01

Please look up its normalized growth: Cn1cnc([N+](=O)[O-])c1Sc1ncnc2nc[nH]c12 1.02

Please look up its normalized growth: CCCc1nc(C(C)(C)O)c(C(=O)OCc2oc(=O)oc2C)n1Cc1ccc(-c2ccccc2-c2nn[nH]n2)cc1 0.966

###

method-summary: chemical genetic growth profiling, strain panel (AID 1159580);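 also: tested at 20 µM; growth read once vehicle control cultures reached saturation at 30 °C; 1 = growth at the plate median or of vehicle wells; lower values mean less growth of the strain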
condition-notes: S. cerevisiae deletion strains, growth OD, locus YOR083W, strain WHI5 (second series), stronger effect = lower value
Out of some 5,500 compounds screened, about 2,000 (36%) were called active. Roughly 18% stayed inconclusive and do not appear here. This is one part of the list.
Lab note - cut at 1 for normalized growth: class 1 if strictly below, class 0 if not.

Decide: normalized growth of O=c1oc(Cl)c(Cl)c2ccccc12 strictly below 1? class 1

Decide: normalized growth of CCCCC/C=C\C/C=C\C/C=C\C/C=C\CCCC(=O)NCC(=O)O strictly below 1? class 1

Decide: normalized growth of Fc1ccc(CN(C2=NCCN2)c2c(Cl)cccc2Cl)cc1 strictly below 1? class 0

###

method-summary: chemical genetic growth profiling, strain panel (AID 1159580);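 also: tested at 20 µM; growth read once vehicle control cultures reached saturation at 30 °C; 1 = growth at the plate median or of vehicle wells; lower values mean less growth of the strain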
condition-notes: S. cerevisiae deletion strains, growth OD, locus YOR329C, strain SCD5
About 2,000 (36%) of roughly 5,500 compounds were called active. Roughly 18% stayed inconclusive and do not appear here. Cut-off read from the data, not from the text of the source: active = normalized growth mostly below about 0.91 (no sharp cut-off); inconclusive = no clear call, values can overlap the other calls; inactive = mostly above about 0.92. This is one part of the list.
API: response.call in active, inactive

What was the test verdict on CCOC(=O)C(NC(C)=O)(Nc1ccc(F)c(Cl)c1)C(F)(F)F (centres undefined) ? inactive

What was the test verdict on N#CC(C#N)=NNc1cc(C(F)(F)F)ccc1OCC(F)(F)F ? inactive

What was the test verdict on O=C(SCc1c(Cl)cccc1Cl)c1ccc([N+](=O)[O-])o1 ? inactive

What was the test verdict on O=C1OC(Nc2ccccc2SCc2ccccc2Cl)c2ccccc21 (centres undefined) ? inactive

What was the test verdict on N#CC(C#N)=NNc1ccc(C(F)(F)F)cc1 ? active

What was the test verdict on COc1cc(OC)cc(/C(N)=N\O)c1 ? inactive

What was the test verdict on CCCCc1ccc(N=CNO)c(C)c1 ? inactive

What was the test verdict on COC(=O)c1ccc(Oc2c(C(F)(F)F)oc3cc(O)ccc3c2=O)cc1 ? inactive

What was the test verdict on O=C(NNc1c(Cl)cccc1Cl)c1ccc([N+](=O)[O-])o1 ? inactive

What was the test verdict on Cc1c(NCN2C(=O)CCC2=O)cc2c(c1[N+](=O)[O-])C(C)(C)CC2(C)C ? inactive

What was the test verdict on Nc1ccc(N2CCN(c3ccc(C(F)(F)F)cn3)CC2)nc1 ? inactive

What was the test verdict on O=S(=O)(Nc1cc(-c2cccs2)nn1-c1ccc(I)cc1)c1cccc(F)c1 ? inactive

What was the test verdict on Cc1nc(C(F)(F)F)ccc1C(=O)Sc1nnc(-c2ccc(C(F)(F)F)nc2C)o1 ? inactive

What was the test verdict on O=S(=O)(Nc1ccc(-n2nc(C(F)(F)F)cc2-c2cccs2)cc1)c1ccc(F)cc1 ? inactive

What was the test verdict on Fc1ccc(Nc2nc(-c3ccc(F)c(F)c3)cs2)c(F)c1 ? active

What was the test verdict on Cc1nc([N+](=O)[O-])cn1CC(=O)c1ccc(Cl)cc1 ? inactive

What was the test verdict on N#C/C(=N/Nc1ccc(C(F)(F)F)cc1)C(=O)C1CC1 ? inactive

What was the test verdict on CC(NC(=S)Nc1ccc(Oc2ccc(Cl)cc2)cc1)c1ccccc1 (centres undefined) ? inactive

What was the test verdict on CC(/C=C/c1ccccc1)=N/OC(=O)c1ccccc1Cl ? inactive

What was the test verdict on Nc1ccccc1C(=O)N/N=C\c1cc(Cl)cc(Cl)c1O ? inactive

What was the test verdict on CC(=O)Oc1ccc2c(=O)c(Oc3ccc(Cl)cc3)c(C)oc2c1 ? inactive

What was the test verdict on CC(C)(C)c1cc(C(=O)/C(C#N)=N\Nc2ccc(Cl)cc2)no1 ? inactive

What was the test verdict on N/C(=N/OC(=O)c1ccccc1Cl)c1cccc(CS(=O)(=O)c2ccc(Cl)cc2)c1 ? inactive

What was the test verdict on N#C/C(=N/Nc1ccc(Cl)cc1)C(N)=S ? active

What was the test verdict on O=C(O)c1cccc2cccc(C(=O)O)c12 ? active

What was the test verdict on O=C(NCc1ccc(F)c(Cl)c1)Nc1csc([N+](=O)[O-])c1 ? inactive

What was the test verdict on CN(NC(=S)Nc1cc(Cl)ccc1Cl)c1ccc(C(F)(F)F)cc1[N+](=O)[O-] ? inactive

What was the test verdict on CC1CCc2c(sc3ncnc(Sc4ccccc4)c23)C1 (centres undefined) ? inactive

What was the test verdict on N#C/C(=N/Nc1ccc(Cl)cc1)C(=O)C1CC1 ? active

What was the test verdict on CC(Oc1ccc(Cl)cc1Cl)C(=O)NNC(=S)Nc1ccccc1 (centres undefined) ? inactive

What was the test verdict on O=C1CSC(=Nc2cc(Cl)cc(Cl)c2)N1Cc1cccnc1 ? inactive

What was the test verdict on CCCCCc1ccc(S(=O)(=O)Nc2ncc(C)cc2Br)cc1 ? inactive

What was the test verdict on CSc1nc(Sc2n[nH]c(-c3ccccc3)n2)cc(Sc2n[nH]c(-c3ccccc3)n2)n1 ? inactive

What was the test verdict on FC(F)(F)c1ccc(NC(=S)Nc2ccc(C(F)(F)F)cc2Cl)c(Cl)c1 ? inactive

What was the test verdict on NNC(=O)COc1ccc(C2SCCS2)cc1 ? inactive

What was the test verdict on N#C/C(=C\C=C\c1ccccc1)c1nc2ccccc2[nH]1 ? inactive

What was the test verdict on CCCCCc1ccc(-c2nc(SCC(C)=O)n[nH]2)cc1 ? inactive

What was the test verdict on FC(F)(F)c1ccc(C2Sc3ccccc3N=C3c4ccccc4CC32)cc1 (centres undefined) ? inactive

What was the test verdict on O=C(OCc1ccc(Oc2ccc(Cl)cc2Cl)c([N+](=O)[O-])c1)c1ccc([N+](=O)[O-])o1 ? inactive

What was the test verdict on Oc1ccc(-n2nnnc2SCc2ccc(OC(F)(F)F)cc2)cc1 ? inactive

What was the test verdict on CCC1(c2ccccc2)OC(c2cc(Cl)cc(Cl)c2O)Nc2ccccc21 (centres undefined) ? inactive

What was the test verdict on O=C(Nc1ccc(Cl)cc1)c1csc([N+](=O)[O-])c1 ? inactive

What was the test verdict on CCOC(=O)C(O)(c1ccc(NC(=O)Nc2ccc(Cl)cc2)cc1)C(F)(F)F (centres undefined) ? inactive

What was the test verdict on Cc1c(C(=O)NCCNc2ccc(C(F)(F)F)cc2[N+](=O)[O-])cnn1-c1ccc(F)cc1 ? inactive
